experiment: in vivo; settings: mouse, iv
quantity.name: tissue uptake at 5 min (%ID/g)

- compound: "NCCC[11CH2]N [no-carrier-added [1-^11 C]putrescine, [1-^11 C]putrescine]"
  quantity.name: "tissue uptake at 5 min"
  units.text: "%ID/g"
  measured.result: 1.37

###

experiment: in vivo; settings: mouse, iv
quantity.name: tissue uptake at 0.5 h (%ID/g)

- molecule: "NCCC[11CH2]N [no-carrier-added [1-^11 C]putrescine, [1-^11 C]putrescine]"
  measured.result: 0.82

Reference source for all entries: patent US4874600A
